Record: IC50 reported on Aurora B (Homo sapiens, UniProt Q96GD4).
Sequence (Q96GD4 whole entry): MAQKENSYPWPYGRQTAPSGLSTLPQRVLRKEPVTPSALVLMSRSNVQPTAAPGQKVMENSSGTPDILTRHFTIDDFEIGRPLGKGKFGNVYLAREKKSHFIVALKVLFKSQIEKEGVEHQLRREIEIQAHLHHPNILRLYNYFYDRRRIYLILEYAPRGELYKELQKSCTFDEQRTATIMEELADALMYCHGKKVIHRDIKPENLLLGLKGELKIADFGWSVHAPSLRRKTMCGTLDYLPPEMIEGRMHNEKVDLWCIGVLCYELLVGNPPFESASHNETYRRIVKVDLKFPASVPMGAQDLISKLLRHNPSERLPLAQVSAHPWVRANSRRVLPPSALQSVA
Report field: quantity (unit follows the number).

- compound: "CO[C@@]12CCN(C(=O)O[C@@H](C)C(F)(F)F)[C@@H]1CN(c1nc(C)cc(Nc3cc[nH]n3)n1)C2 [Example 1]"
  IC50: "730 nM"

Record Cc1cc(Nc2cc[nH]n2)nc(N2C[C@@H]3[C@@H](C2)OCCN3C(=O)OC(C)(C)C(F)(F)F)n1 [Example 3] has Aurora B (Homo sapiens, UniProt Q96GD4) IC50 equal to 870 nM

----------
system: Aurora A (Homo sapiens, UniProt O14965)
Construct: histidine tag (N); made in house; host or cells: Escherichia coli BL21-CodonPlus(DE3)-RIL
Sequence (O14965 whole entry): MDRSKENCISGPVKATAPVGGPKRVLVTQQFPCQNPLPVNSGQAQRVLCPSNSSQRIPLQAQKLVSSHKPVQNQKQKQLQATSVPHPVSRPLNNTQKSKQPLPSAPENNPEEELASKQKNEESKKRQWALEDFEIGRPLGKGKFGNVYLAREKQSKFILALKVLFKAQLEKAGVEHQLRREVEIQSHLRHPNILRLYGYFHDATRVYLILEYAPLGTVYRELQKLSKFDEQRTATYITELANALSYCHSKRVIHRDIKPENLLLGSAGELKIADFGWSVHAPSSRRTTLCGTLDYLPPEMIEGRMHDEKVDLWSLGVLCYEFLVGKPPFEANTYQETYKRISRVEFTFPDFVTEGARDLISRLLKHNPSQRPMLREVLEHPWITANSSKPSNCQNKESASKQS
protocol-notes: Aurora A inhibitory action (33P-ATP kinase assay, Kemptide substrate)
Type: biochemical
condition-summary: 20 μM unlabeled ATP, 100 μM substrate peptide, 30° C. for 20 minutes; read-out: Inhibitory activity for Aurora A (IC50)
Each record here notes measured pIC50.
Quick note: pIC50 values are minus log10 of concentrations in mol/L.

- sample-smiles: "Cc1cc(Nc2cc[nH]n2)nc(N2C[C@@H]3[C@@H](C2)OCCN3C(=O)O[C@@H](C)C(F)(F)F)n1"
  system: "Aurora A (Homo sapiens, UniProt O14965)"
  pIC50: 8.89

For the next question, use this compound.
Reported pIC50 ( "Cc1cc(Nc2cc[nH]n2)nc(N2C[C@@H]3[C@@H](C2)OCCN3C(=O)OC(C)(C)C(F)(F)F)n1" ) = 8.27

----------
system: Aurora A (Homo sapiens)
Construct: histidine tag (N); made in house; host or cells: Escherichia coli BL21-CodonPlus(DE3)-RIL
protocol-notes: Aurora A inhibitory action (33P-ATP kinase assay, Kemptide substrate)
Assay type: biochemical
endpoint-label: pIC50
Quick note: pIC50 values are minus log10 of concentrations in mol/L.

Reported pIC50 ( CO[C@@]12CCN(C(=O)O[C@@H](C)C(F)(F)F)[C@@H]1CN(c1nc(C)cc(Nc3cc[nH]n3)n1)C2 [Example 1] ) = 8.64
